# assay_text: Plasma stability in vitro assay
# Format: in vitro ADME
# details: heparinized rat plasma, 100 μM, 37.5° C.
recorded_endpoint: Plasma Stability, Percent Remaining @ 1 hour (%)

// worked examples, Plasma Stability, Percent Remaining @ 1 hour included
O=C(O)c1cc(-c2cccc(-c3nc(-c4ccsc4)cc(C(F)(F)F)n3)c2)ccc1F : 83
O=C(O)c1cc(-c2cccc(-c3nsc(-c4ccccc4)n3)c2)ccc1F : 65
COc1ccc(-c2cc(C(F)(F)F)nc(-c3cccc(-c4ccc(F)c(C(=O)O)c4)c3)n2)cc1 : 97
O=C(O)c1ccc(F)c(-c2cccc(-c3nc(-c4ccc(C(F)(F)F)nc4)cc(C(F)(F)F)n3)c2)c1 : 86
O=C(O)c1cc(F)cc(-c2cccc(-c3nc(-c4ccco4)cc(C(F)(F)F)n3)c2)c1 : 100
O=C(O)c1cc(F)cc(-c2cccc(-c3nc(-c4ccc(C(F)(F)F)nc4)cc(C(F)(F)F)n3)c2)c1 : 100
O=C(O)c1cc(-c2cccc(-c3nc(-c4ccccc4)cc(C(F)(F)F)n3)c2)ccc1F : 100
O=C(O)c1cc(F)cc(-c2cccc(-c3nsc(-c4ccoc4)n3)c2)c1 : 95
O=C1CC(c2cccc(-c3cccnc3)c2)=Nc2ccc(Br)cc2N1 : 100
O=C(O)c1cc(F)cc(-c2cccc(-c3csc(-c4ccccc4)n3)c2)c1 : 98

I: Cc1cc2c(cc1C(F)(F)F)NC(=O)CC(c1cccc(Sc3ncccn3)c1)=N2
II: Cc1cc2c(cc1C(F)(F)F)NC(=O)CC(c1cccc(S(=O)(=O)c3ncccn3)c1)=N2
In: Min Plasma Stability, Percent Remaining @ 1 hour? I | II Give the chosen item's label as your response.
Out: II
